assay: Pro-oxidant activity in 0.1 M potassium phosphate buffer at pH 7.4 assessed as increase of oxidation potential by cyclic voltammetry analysis; type: physicochemical
recorded-endpoint: Activity

COc1ccc(CCC(=O)O)cc1OC	Active
O=c1cccco1	Not Active
Cc1cc(O)cc(=O)o1	Not Active
COc1ccc(/C=C/C(=O)O)cc1OC	Active

## Input Fill in: Activity of COc1cc2ccc(=O)oc2cc1OC is ___
## Output Not Active

## Input I would be grateful if you could share the reported Activity for O=C(O)CCc1ccc(O)c(O)c1 [DIHYDROCAFFEIC ACID] .
## Output Active

* * *

test system: U-937; assay: Inhibition of clonogenic activity in human U937 cells assessed as reduction of colony formation in soft agar at 100 to 250 uM after 24 hrs using crystal violet staining; assay type: functional, cell-based
Activity calls are given as the source filed them. No cut-off for these calls is given here.
Returns: one label drawn from Y for active, N for inactive

O=C(O)CCc1ccc(O)c(O)c1 [DIHYDROCAFFEIC ACID]	N
COc1ccc2c(C)cc(=O)oc2c1OC	N
Cc1cc(=O)oc2c(O)c(O)ccc12 [4-METHYLDAPHNETIN]	Y

Please turn your attention to the following entry.
## Input Please let me know the test result on file for Cc1cc(=O)oc2cc(O)ccc12 [HYMECROMONE] .
## Output N
